# Tested on: OVCAR-4 ovarian
# test: NCI-60 one-dose screen, 48 h (100 = growth as untreated, 0 = no growth, -100 = all killed)
# experimental conditions: 10 µM unless noted
# Procedure: Growth inhibition of the OVCAR-4 human tumor cell line is measured as a screen for anti-cancer activity. Cells are grown in 96 well plates and exposed to the test compound for 48 hours. Compounds are tested at a single concentration, which is 10^-5 M for most compounds. The reported endpoint is percent growth (GI% or GIPRCNT), where numbers from 0 - 100% represent growth inhibition, and numbers from -100% - 0 represent cell death. For example, a value of 40 represents 60% growth inhibition. […]
About 83,000 compounds went through this panel and 20% of them were active in at least one assay; those are over-represented in the sample as a whole. Active and inactive are the calls of the source. The calls were made as follows: active = growth percent below 10; inactive = the rest.
I'd appreciate it if you could supply growth values for the items below.

Briefly, growth measured for "CN1C(=O)C(=Cc2cn(Cc3ccccc3)c3ccccc23)C(=O)N(C)C1=O" : 49.8% (inactive)

Briefly, growth measured for CCCCNC(c1ccc(Cl)cc1)C(O)c1ccc(Cl)cc1 (stereo not given) : 65.9% (inactive)

Briefly, growth measured for "Cc1cc(N(CCCl)CCCl)ccc1/C=N\NC(=O)c1ccncc1" : 89.1% (inactive)

Briefly, growth measured for O=C1OCCC1Br (stereo not given) : 107% (inactive)

Briefly, growth measured for "C=C(C)[C@@]12OC3(/C=C/C=C/CCCCC)O[C@@H]1[C@@H]1[C@@H]4O[C@]4(CO)[C@@H](O)[C@]4(O)C(=O)C(C)=C[C@H]4[C@@]1(O3)[C@H](C)[C@H]2OC(=O)c1ccccc1" : 72.2% (inactive)
